All figures here come from PubChem BioAssay AID1745844.

# Test system: rodent lifetime carcinogenesis bioassay, tumor incidence TD50
# assay name: carcinogenic potency in animals, long-term in vivo studies, CPDB compilation (AID 1745844)
# condition details: rat; strain Fischer 344; males; in feed; site: urinary bladder; lesion: papillary carcinoma; dosed 30 weeks; study length 52 weeks
readout kind: TD50 (mg/kg/day)
Field format: number, assumed mg/kg/day, no unit text.

`O=CNc1nc(-c2ccc([N+](=O)[O-])o2)cs1` yielded TD50 of 5.92

----------
# Test system: rodent lifetime carcinogenesis bioassay, tumor incidence TD50
# assay name: carcinogenic potency in animals, long-term in vivo studies, CPDB compilation (AID 1745844)
# condition details: rat; strain Wistar; males; in feed; site: testis; lesion: Leydig-cell tumor; dosed 54 weeks; study length 69 weeks
readout kind: TD50

`CN(C)N=O` yielded TD50 of 0.136 mg/kg/day

----------
# System: rodent lifetime carcinogenesis bioassay, tumor incidence TD50
# assay name: carcinogenic potency in animals, long-term in vivo studies, CPDB compilation (AID 1745844)
# condition details: mouse; strain B6C3F1; males; in feed; site: any site (literature study); lesion: several types; types named in the paper; dosed 103 weeks; study length 107 weeks
Activity calls are given as the source filed them. No rule for the calls is given here.
Give TD50 for every item shown.

`CC(=O)c1ccc(S(=O)(=O)NC(=O)NC2CCCCC2)cc1` yielded TD50 of 2370 mg/kg/day (inactive)

`CC(C)(c1ccc(O)cc1)c1ccc(O)cc1` yielded TD50 of 1.32e+06 mg/kg/day

----------
# Test system: rodent lifetime carcinogenesis bioassay, tumor incidence TD50
# assay name: carcinogenic potency in animals, long-term in vivo studies, CPDB compilation (AID 1745844)
# condition details: rat; strain Fischer 344; males; in feed; site: thyroid gland; lesion: follicular-cell adenoma + follicular-cell carcinoma; dosed 99 weeks; study length 103 weeks
readout kind: TD50

`CCC1(c2ccccc2)C(=O)NCNC1=O` yielded TD50 of 80.2 mg/kg/day

----------
# Tested on: rodent lifetime carcinogenesis bioassay, tumor incidence TD50
# assay name: carcinogenic potency in animals, long-term in vivo studies, CPDB compilation (AID 1745844)
# condition details: rat; strain F344/DuCrj; males; in drinking water; site: digestive tract; lesion: several types; types named in the paper; dosed 50 weeks; study length 50 weeks
readout kind: TD50

`CCCCN(N=O)C(N)=O` yielded TD50 of 0.91 mg/kg/day

----------
# Test system: rodent lifetime carcinogenesis bioassay, tumor incidence TD50
# assay name: carcinogenic potency in animals, long-term in vivo studies, CPDB compilation (AID 1745844)
# condition details: mouse; strain B6C3F1; females; in drinking water; site: any site (literature study); lesion: several types; types named in the paper; dosed 79 weeks; study length 79 weeks
readout kind: TD50 (mg/kg/day)
Field format: number, assumed mg/kg/day, no unit text.

`OCCBr` yielded TD50 of 73.2

----------
# System: rodent lifetime carcinogenesis bioassay, tumor incidence TD50
# assay name: carcinogenic potency in animals, long-term in vivo studies, CPDB compilation (AID 1745844)
# condition details: rat; strain Fischer 344; males; in drinking water; site: pharynx + tongue; lesion: squamous-cell carcinoma + squamous-cell papilloma; dosed 58 weeks; study length 60 weeks
readout kind: TD50

`Cc1cc(-c2ccc(N)c(C)c2)ccc1N` yielded TD50 of 8.47 mg/kg/day

----------
# Test system: rodent lifetime carcinogenesis bioassay, tumor incidence TD50
# assay name: carcinogenic potency in animals, long-term in vivo studies, CPDB compilation (AID 1745844)
# condition details: hamster; strain Syrian Golden; females; by gavage; site: liver; lesion: several types; types named in the paper; dosed 50 weeks; study length 65 weeks
readout kind: TD50

`O=NC(=O)CCNCCO` yielded TD50 of 0.997 mg/kg/day

----------
# Test system: rodent lifetime carcinogenesis bioassay, tumor incidence TD50
# assay name: carcinogenic potency in animals, long-term in vivo studies, CPDB compilation (AID 1745844)
# condition details: mouse; strain Swiss albino; males; by gavage; site: gall bladder; lesion: adenoma; dosed 53 weeks; study length 119 weeks
readout kind: TD50

`CC(C)C/C=N/N(C)C=O` yielded TD50 of 46.1 mg/kg/day

----------
Give TD50 for every item shown.
# Tested on: rodent lifetime carcinogenesis bioassay, tumor incidence TD50
# assay name: carcinogenic potency in animals, long-term in vivo studies, CPDB compilation (AID 1745844)
# condition details: mouse; strain Swiss; females; in drinking water; site: lung; lesion: adenoma; dosed 113 weeks; study length 113 weeks
Field format: number, assumed mg/kg/day, no unit text.

Query `NN` on rodent lifetime carcinogenesis bioassay, tumor incidence TD50; TD50 returned: 2.81

Query `CNN` on rodent lifetime carcinogenesis bioassay, tumor incidence TD50; TD50 returned: 4.02

----------
# Test system: rodent lifetime carcinogenesis bioassay, tumor incidence TD50
# assay name: carcinogenic potency in animals, long-term in vivo studies, CPDB compilation (AID 1745844)
# condition details: mouse; strain B6C3F1; females; in feed; site: uterus; lesion: endometrial stromal polyp; dosed 103 weeks; study length 104 weeks
Give TD50 for every item shown.
Field format: number, assumed mg/kg/day, no unit text.

`CCOC(=O)/C(Cl)=N/Nc1ccccc1` yielded TD50 of 86500

O=P(OCC(Br)CBr)(OCC(Br)CBr)OCC(Br)CBr (configuration not stated) yielded TD50 of 264

----------
# Tested on: rodent lifetime carcinogenesis bioassay, tumor incidence TD50
# assay name: carcinogenic potency in animals, long-term in vivo studies, CPDB compilation (AID 1745844)
# condition details: rat; strain Charles River CD (Sprague-Dawley); males; inhaled; site: Zymbal's gland; lesion: squamous-cell carcinoma, sebaceous; dosed 93 weeks; study length 103 weeks
readout kind: TD50

`C=CF` yielded TD50 of 1090 mg/kg/day

----------
# System: rodent lifetime carcinogenesis bioassay, tumor incidence TD50
# assay name: carcinogenic potency in animals, long-term in vivo studies, CPDB compilation (AID 1745844)
# condition details: hamster; strain Syrian Golden; females; by gavage; site: forestomach; lesion: squamous-cell papilloma; dosed 35 weeks; study length 55 weeks
readout kind: TD50

CC(=O)CNCC(O)C(O)N=O (stereo unspecified) yielded TD50 of 0.868 mg/kg/day

----------
# System: rodent lifetime carcinogenesis bioassay, tumor incidence TD50
# assay name: carcinogenic potency in animals, long-term in vivo studies, CPDB compilation (AID 1745844)
# condition details: mouse; strain B6C3F1; males; in drinking water; site: any site (literature study); lesion: several types; types named in the paper; dosed 103 weeks; study length 104 weeks
readout kind: TD50 (mg/kg/day)
Field format: number, assumed mg/kg/day, no unit text.

Query `Nc1ccc(Cc2ccc(N)cc2)cc1` on rodent lifetime carcinogenesis bioassay, tumor incidence TD50; TD50 returned: 47.4

----------
# Test system: rodent lifetime carcinogenesis bioassay, tumor incidence TD50
# assay name: carcinogenic potency in animals, long-term in vivo studies, CPDB compilation (AID 1745844)
# condition details: rat; strain Fischer 344; males; in drinking water; site: liver; lesion: several types; types named in the paper; dosed 112 weeks; study length 112 weeks
readout kind: TD50 (mg/kg/day)
Field format: number, assumed mg/kg/day, no unit text.

CN(CCCC(O)c1cccnc1)N=O (stereo unspecified) yielded TD50 of 7.25

----------
# System: rodent lifetime carcinogenesis bioassay, tumor incidence TD50
# assay name: carcinogenic potency in animals, long-term in vivo studies, CPDB compilation (AID 1745844)
# condition details: rat; strain Fischer 344; females; by gavage; site: liver; lesion: hepatocellular adenoma + hepatocellular carcinoma + neoplastic nodule; dosed 90 weeks; study length 97 weeks
readout kind: TD50

`C=Cc1ccccc1` yielded TD50 of 25200 mg/kg/day

----------
# Tested on: rodent lifetime carcinogenesis bioassay, tumor incidence TD50
# assay name: carcinogenic potency in animals, long-term in vivo studies, CPDB compilation (AID 1745844)
# condition details: rat; strain Fischer 344; females; by gavage; site: mammary gland; lesion: adenoma + fibroadenoma; dosed 91 weeks; study length 105 weeks
readout kind: TD50 (mg/kg/day)
Field format: number, assumed mg/kg/day, no unit text.

`ClCC(Cl)CCl` yielded TD50 of 3.32

----------
# System: rodent lifetime carcinogenesis bioassay, tumor incidence TD50
# assay name: carcinogenic potency in animals, long-term in vivo studies, CPDB compilation (AID 1745844)
# condition details: rat; strain Charles River CD (Sprague-Dawley); males; in feed; site: any site (literature study); lesion: several types; types named in the paper; dosed 77 weeks; study length 94 weeks
Active and inactive are the calls of the source. No rule for the calls is given here.
readout kind: TD50

`Nc1nc(N)nc(-c2ccccc2)n1` yielded TD50 of 16.3 mg/kg/day (inactive)

----------
# Tested on: rodent lifetime carcinogenesis bioassay, tumor incidence TD50
# assay name: carcinogenic potency in animals, long-term in vivo studies, CPDB compilation (AID 1745844)
# condition details: rat; strain Fischer 344; females; by gavage; site: stomach; lesion: squamous-cell carcinoma; dosed 103 weeks; study length 104 weeks
readout kind: TD50

Query c1cc(OCC2CO2)cc(OCC2CO2)c1 (stereo unspecified) on rodent lifetime carcinogenesis bioassay, tumor incidence TD50; TD50 returned: 5.1 mg/kg/day
